organism: Rattus norvegicus; assay: Open TG-GATES - Regimen: Daily Repeat; type: toxicity, organism-based, Sprague-Dawley; design: regimen Daily Repeat, gender Male, age 6 weeks; settings: in vivo, po, 0 mg/kg, […], tissue Plasma, route gavage, dose level Control, time 14 day
OBSERVED PROPERTY: AST (IU/L)
Give just the numeric value; IU/L need not be written.

Look at this molecule and give its reported AST. C#C[C@]1(O)CC[C@H]2[C@@H]3CCC4=Cc5oncc5C[C@]4(C)[C@H]3CC[C@@]21C [DANAZOL]
65.6

// repeat for Cc1cccc(Nc2ccccc2C(=O)O)c1C [MEFENAMIC ACID] and report
58.8

One more molecule: CN(C)[C@@H]1C(O)=C(C(N)=O)C(=O)[C@@]2(O)C(O)=C3C(=O)c4c(O)cccc4[C@@](C)(O)[C@H]3C[C@@H]12 [TETRACYCLINE]
67.4

Further, for CN1C(C(=O)Nc2ccccn2)=C(O)c2sc(Cl)cc2S1(=O)=O [LORNOXICAM] ?
66.6

Quick one: C1CCC(C(CC2CCCCN2)C2CCCCC2)CC1 (centres undefined) [PERHEXILINE]
71.8

What do you get for CC(CN1c2ccccc2Sc2ccccc21)N(C)C (centres undefined) [PROMETHAZINE] ?
70.4

CC(=O)Nc1nnc(S(N)(=O)=O)s1 [ACETAZOLAMIDE] , same question.
67.2

Now try CCOC(=O)[C@H](CCc1ccccc1)N[C@@H](C)C(=O)N1CCC[C@H]1C(=O)O .
58.2

Next molecule: Clc1c(Cl)c(Cl)c(Cl)c(Cl)c1Cl [PERCHLOROBENZENE]
58.2
